Origin of values: the supplement of paper PMC10567573

B1: GFOD1 (parent)
chain: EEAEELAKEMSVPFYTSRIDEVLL

Variants of: B1
Experiment notes: protein stability index of a GFP-peptide fusion (GPS, HEK-293T) (PSI 1-6); higher = more stable;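 also: lentivirally expressed fusions sorted by FACS into six bins by GFP to DsRed ratio, PSI derived from sequencing read proportions per bin multiplied by bin number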
Particulars: c terminus: a fixed tail appended
Experimental readout: protein stability index
The reply should be a number, written without any unit.

Consider the reported protein stability index for these variants:
T16K | 3.7
S11H | 4.04
S11R | 3.02
P13T | 4.03
E5T | 3.48
S17P | 4.43
A3K | 4.38
E4S | 3.93

For L6N , what is its reported protein stability index?
4.51

For E1N , what is its reported protein stability index?
2.83

For L6V , what is its reported protein stability index?
3.94

For A3G , what is its reported protein stability index?
3.95

For T16L , what is its reported protein stability index?
2.75

For S17K , what is its reported protein stability index?
3.87

For V12G , what is its reported protein stability index?
4.26

For A7Q , what is its reported protein stability index?
4.06
